system: herpes simplex 1 (HSV-1); assay: microbe, parasite or virus in culture; type: cell-based; details: Human alphaherpesvirus 1, read-out: IC50 HSV-1
Recorded IC50, one value per entry.
// note: answer is a bare numeric in µM

Below, each entry is followed by its recorded IC50 result.
compound	assayed_system	observed_value
CC(C)CNC(=O)[C@@H](N)Cc1ccc(OP(=O)(O)CO[C@H](CO)Cn2cnc3c(N)ncnc32)cc1	herpes simplex 1 (HSV-1)	45
CCC(C)[C@H](N)C(=O)N[C@@H](Cc1ccc(OP2(=O)CO[C@@H](Cn3ccc(N)nc3=O)CO2)cc1)C(=O)OC (stereo partly drawn)	herpes simplex 1 (HSV-1)	15
COC(=O)[C@H](Cc1ccc(OP2(=O)CO[C@@H](Cn3cnc4c(N)ncnc43)CO2)cc1)NC(=O)[C@@H](N)C(C)C (stereo partly drawn)	herpes simplex 1 (HSV-1)	35
Nc1nc2c(ncn2COCCO)c(=O)[nH]1 [ACV, Acyclovir, reference compound]	herpes simplex 1 (HSV-1)	0.6
CC(C)CNC(=O)[C@@H](N)Cc1ccc(OP2(=O)COC(Cn3cnc4c(N)ncnc43)CO2)cc1 (stereo partly drawn)	herpes simplex 1 (HSV-1)	50

Value of IC50 reported for the compound COC(=O)[C@@H](N)Cc1ccc(OP2(=O)CO[C@@H](Cn3ccc(N)nc3=O)CO2)cc1 (stereo partly drawn) is 25

Note to self: IC50 recorded for Nc1ncnc2c1ncn2C[C@H]1COP(=O)(O)CO1 [Compound 6, cHPMPA, reference compound] was 30

Notebook: COC(=O)[C@@H](N)Cc1ccc(OP2(=O)CO[C@@H](Cn3cnc4c(N)ncnc43)CO2)cc1 (stereo partly drawn) , IC50 read as 35

response.value for COC(=O)[C@H](N)Cc1ccc(OP2(=O)CO[C@@H](Cn3ccc(N)nc3=O)CO2)cc1 (stereo partly drawn) (field: IC50) = 35

* * *

assay: Enzymatic stability: hydrolysis in rat intestinal homogenate, pH 6.5, 37° C., LC-MS; conditions: per diastereoisomer, st = stable

compound	T1/2 Int. Hom.
COC(=O)[C@@H](N)Cc1ccc(OP2(=O)CO[C@@H](Cn3cnc4c(N)ncnc43)CO2)cc1 (single isomer, unassigned) [1a (S,S)]	<28 min
CC(C)CNC(=O)[C@@H](N)Cc1ccc(OP(=O)(O)CO[C@H](CO)Cn2cnc3c(N)ncnc32)cc1	st
CC(C)OC(=O)[C@@H](N)Cc1ccc(OP2(=O)CO[C@@H](Cn3ccc(N)nc3=O)CO2)cc1 (stereo partly drawn) [2c (S,S)]	<30 min
CC(C)(C)NC(=O)[C@H](N)Cc1ccc(OP2(=O)CO[C@@H](Cn3ccc(N)nc3=O)CO2)cc1 (stereo partly drawn) [2d (S,R)]	1732 min

* * *

Measured half-life by item
assay: Enzymatic stability: hydrolysis in rat intestinal homogenate, pH 6.5, 37° C., LC-MS; conditions: rat, intestinal homogenate, pH 6.5, T1/2 Int. Hom., per diastereoisomer, st = stable

Answered examples (2):
compound	half-life
COC(=O)[C@@H](N)Cc1ccc(OP2(=O)CO[C@@H](Cn3cnc4c(N)ncnc43)CO2)cc1 (single isomer, unassigned) [1a (S,R)]	< 28 min
COC(=O)[C@H](Cc1ccc(OP2(=O)CO[C@@H](Cn3cnc4c(N)ncnc43)CO2)cc1)NC(=O)[C@@H](N)C(C)C (single isomer, unassigned) [1f (S,R)]	< 28 min

Now look at this entry.
Recorded result, COC(=O)[C@@H](N)Cc1ccc(OP2(=O)CO[C@@H](Cn3ccc(N)nc3=O)CO2)cc1 (single isomer, unassigned) [2a (S,R)] , half-life: < 30 min

* * *

Quick reference: T1/2 Int. Hom. of the listed items.
assay: Enzymatic stability: hydrolysis in rat intestinal homogenate, pH 6.5, 37° C., LC-MS; settings: per diastereoisomer, st = stable
Report the value in min with no unit label.

Record excerpt, results attached:
compound	value_units	observed_value
CC(C)(C)NC(=O)[C@H](N)Cc1ccc(OP2(=O)CO[C@@H](Cn3ccc(N)nc3=O)CO2)cc1 (stereo partly drawn) [2d (S,S)]	min	203
COC(=O)[C@H](N)Cc1ccc(OP2(=O)CO[C@@H](Cn3ccc(N)nc3=O)CO2)cc1 (single isomer, unassigned) [2b (S,S)]	min	72

Entry COC(=O)[C@H](N)Cc1ccc(OP2(=O)CO[C@@H](Cn3ccc(N)nc3=O)CO2)cc1 (single isomer, unassigned) [2b (S,R)] , T1/2 Int. Hom. reported as 210

* * *

assay: Enzymatic stability: hydrolysis in rat intestinal homogenate, pH 6.5, 37° C., LC-MS; conditions: per diastereoisomer, st = stable
experimental_endpoint: T1/2 Int. Hom.

Past entries and their recorded results:
compound	T1/2 Int. Hom.
COC(=O)[C@H](Cc1ccc(OP2(=O)CO[C@@H](Cn3cnc4c(N)ncnc43)CO2)cc1)NC(=O)[C@@H](N)C(C)C (single isomer, unassigned) [1f (S,S)]	<28 min
CC(C)OC(=O)[C@@H](N)Cc1ccc(OP2(=O)CO[C@@H](Cn3ccc(N)nc3=O)CO2)cc1 (stereo partly drawn) [2c (S,R)]	<30 min

From here, focus on the item given below.
Entry COC(=O)[C@@H](N)Cc1ccc(OP2(=O)CO[C@@H](Cn3ccc(N)nc3=O)CO2)cc1 (single isomer, unassigned) [2a (S,S)] , T1/2 Int. Hom. reported as <30 min
